Source listed as patent US7767850B2.

test: physchem; assay type: physicochemical; settings: water
measurement-kind: solubility

Input CC(=N)NCCSC[C@](C)(N)C(=O)O.Cl.O=C(O)/C=C\C(=O)O . Output solubility: > 150 mg/mL
